The measurements presented in this section are drawn from paper PMC6393540.

Molecular target: T1, GraA (antitoxin; His-GraA2) (Pseudomonas putida, UniProt Q88MI6 1-99)
T1 sequence: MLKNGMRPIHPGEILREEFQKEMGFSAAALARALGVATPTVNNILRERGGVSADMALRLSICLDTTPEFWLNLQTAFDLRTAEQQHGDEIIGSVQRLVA
Test: ITC; macroscopic; ITC: 50 mM Tris pH 8.0, 250 mM NaCl, 2 mM β-mercaptoethanol (TCEP in purification for ITC), 25 °C; EMSA: 5 µM DNA, 30 min at room temperature, 6% native PAGE in TBE on ice
Details: protein: recombinant; tags: N-terminal His6; chain copies: 4
OUTCOME_MEASURE: Ka (M^-2)
A number alone suffices; assume M^-2.

Task: State the recorded Ka for this entry: Variant 1 (dsDNA) DNA 1: AAATTAACGAATAACGGGCCGCATTCAGCT DNA 2: AGCTGAATGCGGCCCGTTATTCGTTAATTT
Result: 2.1e+09

Task: Another binder: Variant 6 (dsDNA) DNA 1: AAATTAACGAATAACGTTAAGCCGGCAGCT DNA 2: AGCTGCCGGCTTAACGTTATTCGTTAATTT
Result: 1.5e+13

Task: Another binder: Variant 4 (dsDNA) DNA 1: AAAGGCACGAATAACGTTAAGCATTCAGCT DNA 2: AGCTGAATGCTTAACGTTATTCGTGCCTTT
Result: 4.3e+13
